Biological target: T1, human PVRIG on FlpinCHO-PVRIG cells (human, UniProt Q6DKI7 41-326)
T1 construct: whole, on cells
T1 sequence (looked up): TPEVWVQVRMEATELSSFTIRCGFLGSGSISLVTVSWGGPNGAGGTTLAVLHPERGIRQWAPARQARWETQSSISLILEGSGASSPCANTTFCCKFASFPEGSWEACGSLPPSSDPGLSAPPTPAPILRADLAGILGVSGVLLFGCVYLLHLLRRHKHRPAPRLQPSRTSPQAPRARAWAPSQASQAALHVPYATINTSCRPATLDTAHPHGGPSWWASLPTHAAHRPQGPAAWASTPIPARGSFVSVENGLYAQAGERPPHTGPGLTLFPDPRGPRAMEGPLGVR
Assay: FACS, FlpinCHO-PVRIG cells; AUC of MFI curve relative to COM701-hIgG1
endpoint: % AUC to COM701-hIgG1 (%)

INSERT INTO measurements (binder, endpoint, measured) VALUES
  ('PVRIG-A105 (Fc fusion, Alpaca VHH joined to human IgG1 Fc (VHH-hinge-CH2-CH3); not shown: human IgG1 hinge-CH2-CH3) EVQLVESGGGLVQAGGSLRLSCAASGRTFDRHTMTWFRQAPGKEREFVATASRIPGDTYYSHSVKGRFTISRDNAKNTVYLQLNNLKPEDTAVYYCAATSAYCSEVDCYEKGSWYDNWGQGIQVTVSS', '% AUC to COM701-hIgG1', 123),
  ('PVRIG-A30 (Fc fusion, Alpaca VHH joined to human IgG1 Fc (VHH-hinge-CH2-CH3); not shown: human IgG1 hinge-CH2-CH3) QVQLVESGGGLVQPGGSLRLSCAASGRTDSMNVMGWFRRAPGKEREFVARIKWNGDTTYTAYADFLKGRFTLYGAVARNRVYLQMNSLQPEDTAVYYCAAGEVSGSSYSPDYGMHYWGKGTLVTVSS', '% AUC to COM701-hIgG1', 29.3),
  ('PVRIG-A75 (Fc fusion, Alpaca VHH joined to human IgG1 Fc (VHH-hinge-CH2-CH3); not shown: human IgG1 hinge-CH2-CH3) QLQLVESGGGLVQSGGSLRLSCAASGRTRSMYVMGWFRQAPGKEREFVGRIKWSGDTTYTSYADFVKGRFTLYGNQARNTVYLQMNSLKPEDTAVYSCAASKFPVSGVPEHYDYWGQGTQVTVSS', '% AUC to COM701-hIgG1', 50.6),
  ('PVRIG-A118 (Fc fusion, Alpaca VHH joined to human IgG1 Fc (VHH-hinge-CH2-CH3); not shown: human IgG1 hinge-CH2-CH3) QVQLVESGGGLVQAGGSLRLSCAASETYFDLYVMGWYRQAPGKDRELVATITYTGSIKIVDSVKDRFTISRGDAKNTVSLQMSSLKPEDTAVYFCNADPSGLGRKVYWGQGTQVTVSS', '% AUC to COM701-hIgG1', 153);
